Entry source: patent US20090280138A1

biological target: T1, MHC class I allele B*0702 (bound via biotin to streptavidin-coated plate); test: iTopia peptide binding assay
T1 construct: iTopia MHC class I monomer on the plate; placeholder peptide and b2M removed, then reconstituted with test peptide and fresh b2M; also called B7; HLA B7
QUANTITY: % of positive control peptide binding (%)
Express the result in % but write the number alone.

Sample GAFARRPPL (also called Peptide No 55) [5T4 9 mer peptide 55 GAFARRPPL] — what was its % of positive control peptide binding?
91

Follow-up item: LASNHFLYL [5T4 9 mer peptide 109 LASNHFLYL]
49

Next record, please: TDLPAYVRN (also called Peptide No 44) [5T4 9 mer peptide 44 TDLPAYVRN]
2
